Target system: Acetylcholinesterase (Electrophorus electricus)
Sequence (O42275 whole entry): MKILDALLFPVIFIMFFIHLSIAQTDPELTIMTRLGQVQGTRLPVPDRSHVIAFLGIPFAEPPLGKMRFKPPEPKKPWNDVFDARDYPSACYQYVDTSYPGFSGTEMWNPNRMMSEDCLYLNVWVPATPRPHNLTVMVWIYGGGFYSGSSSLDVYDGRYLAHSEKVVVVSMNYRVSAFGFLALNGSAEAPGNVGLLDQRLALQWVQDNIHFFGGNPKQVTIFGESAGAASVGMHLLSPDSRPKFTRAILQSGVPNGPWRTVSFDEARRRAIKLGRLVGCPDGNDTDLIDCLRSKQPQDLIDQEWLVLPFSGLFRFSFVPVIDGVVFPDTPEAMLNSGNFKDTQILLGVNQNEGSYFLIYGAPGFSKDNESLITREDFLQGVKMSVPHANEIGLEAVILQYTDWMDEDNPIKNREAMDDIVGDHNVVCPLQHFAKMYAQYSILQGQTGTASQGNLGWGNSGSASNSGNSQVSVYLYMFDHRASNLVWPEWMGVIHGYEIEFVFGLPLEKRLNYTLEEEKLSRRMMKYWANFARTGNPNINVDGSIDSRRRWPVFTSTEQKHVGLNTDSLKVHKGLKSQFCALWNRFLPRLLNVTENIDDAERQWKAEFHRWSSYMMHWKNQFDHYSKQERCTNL
pIC50: recorded values
Just so you know, pIC50 here is -log10 of the concentration in molar units; reply with that number alone.

// below: answered molecules
COc1cc(/N=C/c2ccc([N+](=O)[O-])cc2)cc(OC)c1 | 5.15
COc1cc(/N=C/c2ccccc2O)cc(OC)c1 | 4.59
COc1cc(/C=N/c2ccc(C(=O)O)cc2)cc(OC)c1OC | 4.94
O=C(O)c1ccc(/N=C/c2ccc([N+](=O)[O-])cc2)cc1 | 5.23
COc1ccc(/C(=N\c2cc(OC)cc(OC)c2)c2ccccc2)cc1 | 5.36

Fill in the blank: the reported pIC50 of O=C(O)c1ccc(/N=C/c2ccccc2)cc1 is ____.
4.90

Fill in the blank: the reported pIC50 of COc1cc(/N=C/c2ccccc2[N+](=O)[O-])cc(OC)c1 is ____.
4.84
